tested on: Trypanosoma brucei rhodesiense, STIB 900 strain, trypomastigotes stage; assay: In vitro activity against T. b. rhodesiense; assay type: cell-based; details: Trypanosoma brucei; STIB 900, trypomastigotes; average of two independent assays; read-out: IC50 T. b. rhod.
pIC50: −log10 of the molar value.
Listing of recorded pIC50 by entry.

{"smiles-record": "CCCCNC(=O)c1ccc2c(n1)C(=O)C1=C(C2=O)S(=O)(=O)C=CN1", "reading-qualifier": "=", "pIC50": 5.43}
{"smiles-record": "C#CCNC(=O)c1ccc2c(n1)C(=O)C1=C(C2=O)S(=O)(=O)CCN1", "reading-qualifier": "<", "pIC50": 3.82}
{"smiles-record": "CCCCCCCCNC(=O)c1ccc2c(n1)C(=O)C1=C(C2=O)S(=O)(=O)CCN1", "reading-qualifier": "=", "pIC50": 5.41}
{"smiles-record": "CCOC(=O)c1cc2c(o1)C(=O)C1=C(C2=O)S(=O)(=O)CCN1", "reading-qualifier": "=", "pIC50": 5.96}
{"smiles-record": "O=C(O)c1cc2c(o1)C(=O)C1=C(C2=O)S(=O)(=O)C=CN1", "reading-qualifier": "=", "pIC50": 5.57}
{"smiles-record": "CCCCCCCCNC(=O)c1ccc2c(n1)C(=O)C1=C(C2=O)S(=O)(=O)C=CN1", "reading-qualifier": "=", "pIC50": 5.62}
{"smiles-record": "CC(C)=CCC/C(C)=C/CNC(=O)c1ccc2c(n1)C(=O)C1=C(C2=O)S(=O)(=O)C=CN1", "reading-qualifier": "=", "pIC50": 5.60}
{"smiles-record": "CCCCCNC(=O)c1ccc2c(n1)C(=O)C1=C(C2=O)S(=O)(=O)C=CN1", "reading-qualifier": "=", "pIC50": 5.44}

----------
system: Trypanosoma brucei rhodesiense, STIB 900 strain, trypomastigotes stage; test: In vitro activity against T. b. rhodesiense; assay type: cell-based; conditions: Trypanosoma brucei; STIB 900, trypomastigotes; average of two independent assays; read-out: IC50 T. b. rhod.
// reported log10 IC50 for each item listed
property-name: log10 IC50 (log10 of the value in µM)

{"smiles-record": "CC(C)=CCC/C(C)=C/CNC(=O)c1ccc2c(n1)C(=O)C1=C(C2=O)S(=O)(=O)CCN1", "log10 IC50": 0.53}
{"smiles-record": "O=C(NCCc1ccccc1)c1ccc2c(n1)C(=O)C1=C(C2=O)S(=O)(=O)CCN1", "log10 IC50": 0.38}
{"smiles-record": "CCCCNC(=O)c1ccc2c(n1)C(=O)C1=C(C2=O)S(=O)(=O)CCN1", "log10 IC50": 0.74}
{"smiles-record": "COC(=O)CNC(=O)c1ccc2c(n1)C(=O)C1=C(C2=O)S(=O)(=O)C=CN1", "log10 IC50": 1.54}
{"smiles-record": "O=C(NCc1ccccc1)c1ccc2c(n1)C(=O)C1=C(C2=O)S(=O)(=O)CCN1", "log10 IC50": 0.28}
{"smiles-record": "CCCCCNC(=O)c1ccc2c(n1)C(=O)C1=C(C2=O)S(=O)(=O)CCN1", "log10 IC50": 0.26}
{"smiles-record": "COC(=O)CNC(=O)c1ccc2c(n1)C(=O)C1=C(C2=O)S(=O)(=O)CCN1", "log10 IC50": 2.08}
{"smiles-record": "C#CCNC(=O)c1ccc2c(n1)C(=O)C1=C(C2=O)S(=O)(=O)C=CN1", "log10 IC50": 1.00}
{"smiles-record": "O=C(O)c1cc2c(s1)C(=O)C1=C(C2=O)S(=O)(=O)C=CN1", "log10 IC50": 0.34}
{"smiles-record": "O=C(O)c1cc2c(o1)C(=O)C1=C(C2=O)S(=O)(=O)CCN1", "log10 IC50": 0.88}
{"smiles-record": "O=C(NCCc1ccccc1)c1ccc2c(n1)C(=O)C1=C(C2=O)S(=O)(=O)C=CN1", "log10 IC50": -0.17}
{"smiles-record": "O=C(NCCCc1ccccc1)c1ccc2c(n1)C(=O)C1=C(C2=O)S(=O)(=O)C=CN1", "log10 IC50": 0.77}
{"smiles-record": "O=C(NCc1ccccc1)c1ccc2c(n1)C(=O)C1=C(C2=O)S(=O)(=O)C=CN1", "log10 IC50": 0.62}
{"smiles-record": "O=C(O)c1ccc2c(n1)C(=O)C1=C(C2=O)S(=O)(=O)CCN1", "log10 IC50": 0.49}
{"smiles-record": "O=C(O)CNC(=O)c1ccc2c(n1)C(=O)C1=C(C2=O)S(=O)(=O)C=CN1", "log10 IC50": 1.62}
{"smiles-record": "O=C(O)c1ccc2c(n1)C(=O)C1=C(C2=O)S(=O)(=O)C=CN1", "log10 IC50": 0.60}
{"smiles-record": "O=C(NCCCc1ccccc1)c1ccc2c(n1)C(=O)C1=C(C2=O)S(=O)(=O)CCN1", "log10 IC50": 0.38}
{"smiles-record": "COC(=O)c1ccc2c(n1)C(=O)C1=C(C2=O)S(=O)(=O)CCN1", "log10 IC50": 0.82}
{"smiles-record": "COCCNC(=O)c1ccc2c(n1)C(=O)C1=C(C2=O)S(=O)(=O)C=CN1", "log10 IC50": 1.11}
